The reported measurements were obtained from paper PMC8242095.

Biological target: MtCorBCBS (Methanoculleus thermophilus, UniProt A0A1G8XA46)
ENDPOINT: Kd

So what's the measured Kd for this one? Nc1ncnc2c1ncn2[C@@H]1O[C@H](COP(=O)(O)OP(=O)(O)OP(=O)(O)O)[C@@H](O)[C@H]1O [ATP]
530 nM
